Assay: Toxicity Assessment: ataxia, Loscher scale, Further Tests
Assay type: in vivo, Male, CF-1 male mice
Conditions: mouse, in vivo, ip; speculated to be higher than the highest dose tested
outcome-measure: TD50 at 2 h

• C=C(C)[C@@H]1CCC(C)=C[C@H]1c1c(O)cc(CCCCC)cc1O [regular CBD, cannabidiol] = > 400 mg/kg
